# system_tested: AB-RNA
# test_summary: SCAN nitrocellulose filter binding assay, AB-RNA and biotinylated oligonucleotide 67B
# condition_details: 100 nM AB-RNA, 250 nM oligonucleotide 67B; read-out: ligand concentration inhibiting AB-RNA retention on NC-filters by 50%
pIC50: −log10 of the molar value.
quantity_measured: pIC50

compound | endpoint_value
Nc1ncnc2c1ncn2[C@@H]1O[C@H](COP(=O)(O)OP(=O)(O)OP(=O)(O)O)[C@@H](O)[C@H]1O | 2.30
